Just for reference, patent US20030208035A1 is where these values come from.

Provide the recorded Activity A.f. (relative activity in relation to heliomycin) for the entries that follow.
Tested on: Aspergillus fumigatus
Test: anti-Aspergillus fumigatus growth inhibition test in liquid medium (96-well microplates)
Format: cell-based
Conditions: fold relative to heliomycin
Bridges are numbered along the chain shown (N, C = ends). Where no end group is shown, it is not given here.
Numbers only.

Each sequence below has a reported value. Please supply its Activity A.f. (relative activity in relation to heliomycin).
1. DKLIGSCVWGAVNYTSNCNAECKRRGYKGGHCGSFANVNCWCET (disulfide 7-32, 18-40, 22-42 (inferred)) [Ard1]
2. DKLIGSCVWGAVNYTRDCNGECKRRGYKGGHCGSFANVNCWCET [pEM42, peptide derived from heliomycin]
3. DKLIGSCVWGAVNYTSDCNGECKRRGYKGGHCGSFLNVNCWCET [pEM25, peptide derived from heliomycin]
4. DKLIGSCVWGAVNYTSDCNGECKRRGYKGGHCGSFLNINCWCET [pEM24, peptide derived from heliomycin]

Reply:
2
1
6
8
